# assayProtocol: Human HepG2 cell viability assay in 384 well format
# Assay type: toxicity, cell-based
# Set-up: dose 125 nL, time 70.5 hour; concentration not given beside the values
# experimentalParameters: HepG2 cells, read-out: Inhibition
property: cytotoxicity at 70.5 h (%)

compound=CCN(Cc1ccncc1)S(C)(=O)=O property="cytotoxicity at 70.5 h" unitssymbol=% testresult=27.1
compound=O=C(c1ccc(S(=O)(=O)N2CCSCC2)cc1)N1CCCCCC1 property="cytotoxicity at 70.5 h" unitssymbol=% testresult=14.7
compound=COCCN1CC[C@]2(CN(Cc3ccccn3)C[C@H]2C)C1=O property="cytotoxicity at 70.5 h" unitssymbol=% testresult=1.87
compound="Cc1c(C2N3C[C@]4(C(C)C)CN2C[C@](C(C)C)(C3)C4=O)[nH]c(=O)[nH]c1=O (some centres undefined)" property="cytotoxicity at 70.5 h" unitssymbol=% testresult=-4.97
compound=COCCN1C[C@@H](C(=O)O)[C@H](c2ccccc2C)C1 property="cytotoxicity at 70.5 h" unitssymbol=% testresult=31.8
compound=CC(C)COC1CC2(CCN(C(=O)Cc3ccccn3)CC2)C1 property="cytotoxicity at 70.5 h" unitssymbol=% testresult=-11.8
compound="CN1CCc2[nH]nc(C(=O)N3CCCC4(CN(C)C(=O)O4)C3)c2C1 (centres undefined)" property="cytotoxicity at 70.5 h" unitssymbol=% testresult=-6.4
compound="Cc1cnc2n(c1=O)CC(C(=O)NCc1ccccc1Cl)CS2 (centres undefined)" property="cytotoxicity at 70.5 h" unitssymbol=% testresult=2.42
compound="CC1CN(c2ccc(CNC(=O)NCCn3ccnc3)cn2)CCO1 (centres undefined)" property="cytotoxicity at 70.5 h" unitssymbol=% testresult=-16.7
compound="c1cnnc(N2CCCC2CNCc2cnc(N3CCCC3)nc2)c1 (centres undefined)" property="cytotoxicity at 70.5 h" unitssymbol=% testresult=-7.83
compound="Cn1ncc2c1C(COCC1CC1)CN(Cc1nccs1)C2 (centres undefined)" property="cytotoxicity at 70.5 h" unitssymbol=% testresult=6.16
compound=COc1ccc(F)cc1CSCC(=O)N(C)C1CC1 property="cytotoxicity at 70.5 h" unitssymbol=% testresult=-0.442
compound=CCN(CC)c1ccc(C(=O)N2C[C@@H]3CC[C@H](C2)N(CCOC)C3)cc1 property="cytotoxicity at 70.5 h" unitssymbol=% testresult=23.2
compound="COc1cccc(COCC(O)CN(C)c2ccc(C)cc2C)c1 (centres undefined)" property="cytotoxicity at 70.5 h" unitssymbol=% testresult=-0.324
compound=Cc1nnc2n1CCN(C(=O)c1cn(-c3ccccc3)nn1)C2 property="cytotoxicity at 70.5 h" unitssymbol=% testresult=-1.52
compound="CCCC1CCN(C(=O)c2coc(COc3ccc(OC)cc3)n2)C1 (centres undefined)" property="cytotoxicity at 70.5 h" unitssymbol=% testresult=-3.1
compound="Cc1nn(C)c(C)c1C(C(=O)O)N1CCc2ccccc2C1 (centres undefined)" property="cytotoxicity at 70.5 h" unitssymbol=% testresult=0.959
compound="Cc1nn(C)c(C)c1C1CCCN1Cc1cccc(C(=O)N(C)C)c1 (centres undefined)" property="cytotoxicity at 70.5 h" unitssymbol=% testresult=37.6
compound=Cc1ccc2c(n1)N(C)CCN(Cc1cnn(C)c1)C2 property="cytotoxicity at 70.5 h" unitssymbol=% testresult=-2.39
compound="O=C(CC(SC1CCCCC1)C(=O)O)c1ccc(Cl)cc1 (centres undefined)" property="cytotoxicity at 70.5 h" unitssymbol=% testresult=-4.64
compound="CCOc1ccccc1-c1noc(CN2CCCC(O)C2)n1 (centres undefined)" property="cytotoxicity at 70.5 h" unitssymbol=% testresult=-11.1
compound="CC(C)c1nnc(NC(=O)N2CCCC2c2ccncc2)s1 (centres undefined)" property="cytotoxicity at 70.5 h" unitssymbol=% testresult=20
compound=O=C(c1cnc[nH]1)N1CCC(Oc2cccnc2)CC1 property="cytotoxicity at 70.5 h" unitssymbol=% testresult=-8.28
compound=COc1ccc(-c2noc(CN3CC(n4cc(C)cn4)C3)n2)cc1 property="cytotoxicity at 70.5 h" unitssymbol=% testresult=-11.2

###

# assayProtocol: Human HepG2 cell viability assay in 384 well format
# Format: toxicity, cell-based
# Parameters: dose 125 nL, time 70.5 hour; concentration not given beside the values
# experimentalParameters: HepG2 cells, read-out: Inhibition
property: cytotoxicity at 70.5 h (%)

molecule="Cc1nc(C)c(CNC(=O)NC(c2nnc3n2CCC3)C(C)C)s1 (configuration not stated)" testresult=-1.59
molecule=CS(=O)(=O)NC1CCN(C(=O)COCc2ccccc2)CC1 testresult=18.3
molecule=CO[C@H]1C[C@@H]2CN(C(=O)c3n[nH]c4c3CCCC4)C[C@@H]2C1 testresult=11
molecule="CC(=O)N1CC(C)CN(C(=O)c2cccnc2C)c2ccccc21 (configuration not stated)" testresult=-7.8
molecule=O=C(CN1CCOCC1)N(c1ccccc1)c1ccccc1 testresult=-11.2
molecule=CC(=O)NCCCc1ncnn1-c1cccc(Cl)c1 testresult=1.57
molecule="COC(=O)N1CCCC(C(=O)Nc2ccccc2CN2CCCC2)C1 (configuration not stated)" testresult=-0.192
molecule=O=S1(=O)CCCN1Cc1coc(-c2cccs2)n1 testresult=-10.6
molecule=c1cncc(N2CCCn3nnc(CN4CCCCC4)c3C2)c1 testresult=-0.156
molecule=CO[C@H]1CN(CC2CC2)[C@@H]2CCCO[C@H]12 testresult=-9.81
molecule="Cc1ccc(-c2nc(CNCC3CN(C)CCO3)co2)c(C)c1 (configuration not stated)" testresult=5.24
molecule=Cc1cc(NC(=O)NCCc2ccccc2)n(C)n1 testresult=-7.09

###

# assayProtocol: Human HepG2 cell viability assay in 384 well format
# Assay type: toxicity, cell-based
# Parameters: dose 125 nL, time 70.5 hour; concentration not given beside the values
# experimentalParameters: HepG2 cells, read-out: Inhibition
# maps each entry to its cytotoxicity at 70.5 h
property: cytotoxicity at 70.5 h (%)

compound="Cc1c(C(=O)N2CCCC(n3cncn3)C2)cnn1C (stereo unspecified)" property="cytotoxicity at 70.5 h" testresult=3.32
compound=Cc1ccc(C(=O)N2C[C@@H]3OCCN(CCN4CCCC4)[C@@H]3C2)cn1 property="cytotoxicity at 70.5 h" testresult=-4.09
compound=CN1C(=N)NC(=O)/C1=C/c1ccc(-c2ccc(Br)cc2)o1 property="cytotoxicity at 70.5 h" testresult=1.84
compound="NC(=O)NCC(=O)N1CCC2(CC1)c1ccccc1CC2O (stereo unspecified)" property="cytotoxicity at 70.5 h" testresult=-11.6
compound=CC(C)Cc1ncc(CNc2cnccc2CO)s1 property="cytotoxicity at 70.5 h" testresult=-1.94
compound="COCC1CN(C(C)=O)CCN(c2cc(C)ncn2)C1 (stereo unspecified)" property="cytotoxicity at 70.5 h" testresult=10.4

###

Quick list: cytotoxicity at 70.5 h per entry.
# assayProtocol: Human HepG2 cell viability assay in 384 well format
# Assay type: toxicity, cell-based
# Parameters: dose 125 nL, time 70.5 hour; concentration not given beside the values
# experimentalParameters: HepG2 cells, read-out: Inhibition
property: cytotoxicity at 70.5 h (%)

compound="CC(c1ccon1)N(C)S(=O)(=O)NCc1ccccc1 (configuration not stated)" unitssymbol=% testresult=-2.95
compound=COc1ccc(Cl)cc1-c1nc(N)nc(N)n1 unitssymbol=% testresult=26
compound=Cc1cccc(CN2CCc3nnc(Cn4cccc4)n3CC2)n1 unitssymbol=% testresult=-5.46
compound="O=C(c1cc2c([nH]c1=O)CCC2)N1CCCC1c1cccnc1 (configuration not stated)" unitssymbol=% testresult=14.6
compound=CC(C)(C)C(=O)N1CCN(C(=O)Nc2cnn(CC(F)F)c2)CC1 unitssymbol=% testresult=-7.22
compound=c1coc(-c2nnc([C@H]3CCN(Cc4ccc5c(c4)OCO5)C3)o2)c1 unitssymbol=% testresult=-6.68
compound="OCCNC1CSCCc2ccccc21 (configuration not stated)" unitssymbol=% testresult=33.4
compound=Cc1ccc(CN2Cc3ccccc3O[C@]3(CC[C@H](CO)CC3)C2)s1 unitssymbol=% testresult=5.08
compound=COc1ccc(C)cc1NC(=O)Nc1cnc(N2CCCC2)nc1 unitssymbol=% testresult=1.09
compound="COCCC(=O)N1CCC2(CCCN2Cc2cccc(Cl)c2)C1 (configuration not stated)" unitssymbol=% testresult=-53.8
compound=Cc1cc(CN2CCN(C(=O)NCc3ccco3)CC2)no1 unitssymbol=% testresult=18.9
compound=Cc1cc(=O)n2nc(Oc3cccc(C(N)=O)c3)sc2n1 unitssymbol=% testresult=-25
